# Test: protein stability index of a GFP-peptide fusion (yeast GPS) (PSI 1-4); higher = more stable; sorted into four equal gates, so the index is relative within each strain
# Condition Context: doa10∆
Mark Not fulfilled for protein stability index values under 3, and Fulfilled for everything at or above.

Previously resolved entries follow.
KSDDDDHTVDEIDHVEY [SRB8]    Not fulfilled
HSVQETNKISPKDFSPN [SSN2]    Fulfilled
RSMDAEQLGHASKRHKP [RPP1]    Not fulfilled

Q: Please check the record LNGREVKAILMQRHVKV [RPS4A] and state if its protein stability index is at or above 3.
A: Not fulfilled

Q: Please check the record KRLGPKRANNIRKFFGL [RPS6A] and state if its protein stability index is at or above 3.
A: Fulfilled

Q: Please check the record EATLESKLKEEEAALLI [ESC2] and state if its protein stability index is at or above 3.
A: Not fulfilled

Q: Please check the record TVLADEFIAHRLGLIPL [RPB3] and state if its protein stability index is at or above 3.
A: Not fulfilled

Q: Please check the record TFENTNNTEKNDVTNKN [SIR4] and state if its protein stability index is at or above 3.
A: Not fulfilled

Q: Please check the record RNHKHALHGTAKALAAA [RPL29] and state if its protein stability index is at or above 3.
A: Not fulfilled

Q: Please check the record AQSHQRFNAKVSMVKRA [CDC53] and state if its protein stability index is at or above 3.
A: Not fulfilled

Q: Please check the record LEANGRSLEKVNNSVSK [SSN2] and state if its protein stability index is at or above 3.
A: Fulfilled

Q: Please check the record EVGDVCINELDNWNAPL [RPO31] and state if its protein stability index is at or above 3.
A: Fulfilled

Q: Please check the record NDSNPSFSFSIPSKNTP [YLR335W/NUP2] and state if its protein stability index is at or above 3.
A: Not fulfilled

Q: Please check the record SDSETNHKSKDNNNGDD [SKP1] and state if its protein stability index is at or above 3.
A: Not fulfilled

---

# Test: protein stability index of a GFP-peptide fusion (yeast GPS) (PSI 1-4); higher = more stable; sorted into four equal gates, so the index is relative within each strain
# Condition Context: ubr1∆
Property: protein stability index
The answer should be a number; do not append a unit.

Look over these answered cases.
ISLYLLNLLSQNNTTKF [RPN12]    1.36
SDMENDNLLLNLEQINE [REC8]    2.86

Consider the additional sequence presented here.
Q: Answer with reported protein stability index of RNISFSDNNSRIMSRNF [SWI1]
A: 3.16

---

# Test: protein stability index of a GFP-peptide fusion (yeast GPS) (PSI 1-4); higher = more stable; sorted into four equal gates, so the index is relative within each strain
# Condition Context: ubr1∆
Property: protein stability index

RTLWPEFIPPDPTKVTE [SSN8]    2.67
SQPFIKFLNFRPPNGIK [SSN2]    2.4
EDNGIVKALRNVPGVET [RPL4A]    2.47
LHKFLTKWGLINYQVDS [SWI3]    2.12
DLSLNIHPIPSVTVSQG [YMR129W/POM152]    2.17

Q: Answer with reported protein stability index of GGVPTTSFGQPQSAPNQ [YOR098C/NUP1]
A: 2.15

Q: Answer with reported protein stability index of IVSFIVNCFHEDTELYQ [YJL039C/NUP192]
A: 2.46
